Recorded EC50 values for a group of compounds are listed next.
Measured on: h-TGR5 (Homo sapiens, UniProt Q8TDU6)
Construct: expressed in transfected cells
Sequence (Q8TDU6 1-330): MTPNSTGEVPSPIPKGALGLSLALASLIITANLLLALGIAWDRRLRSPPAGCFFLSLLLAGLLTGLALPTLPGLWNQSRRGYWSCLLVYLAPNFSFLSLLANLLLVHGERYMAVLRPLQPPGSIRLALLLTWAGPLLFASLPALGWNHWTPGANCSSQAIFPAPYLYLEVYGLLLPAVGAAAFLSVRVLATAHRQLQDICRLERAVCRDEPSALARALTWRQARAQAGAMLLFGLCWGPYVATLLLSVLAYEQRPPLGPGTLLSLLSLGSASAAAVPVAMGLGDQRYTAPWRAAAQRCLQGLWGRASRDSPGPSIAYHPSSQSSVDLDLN
Experiment notes: TGR5 cAMP Assay using Cisbio cAMP Dynamic2 htrf kit (hTGR5CRE-luc HEK 293 cells)
Format: cell-based
Assay context: h-TGR5 cAMP EC50, Table 1; read-out: cAMP (EC50)

CC(C)(c1ccc(S(N)(=O)=O)c(Cl)c1)c1cnc(SCc2ccc(Cl)c(-c3nnn[nH]3)c2)n1-c1ccc(F)cc1 ... 100 to 1000 nM
CCOC(=O)NS(=O)(=O)c1ccc(CSc2ncc(C(C)(C)c3ccc(Cl)c(Cl)c3)n2-c2ccc(F)c(OC)c2)c(Cl)c1 ... 100 to 1000 nM
CC(C)(c1ccc(Cl)c(Cl)c1)c1cnc(SCc2c(F)cc(C(=O)O)cc2Cl)n1-c1ccc(F)c(OCCCO)c1 ... 100 to 1000 nM
COc1cc(-n2c(C(C)(C)c3ccc(Cl)c(Cl)c3)cnc2SCc2ccc(S(=O)(=O)NC(=O)NN3CCCC3)cc2Cl)ccc1F ... 1000 to 10000 nM
COc1cc(C(C)(C)c2cnc(SCc3ccc(S(=O)(=O)NC(=O)NC4CCCC4)cc3Cl)n2-c2ccc(F)cc2)ccc1Cl ... < 100 nM

Req: Which measured EC50 value corresponds to CC(C)(c1ccc(Cl)c(Cl)c1)c1cnc(SCc2ccc(S(N)(=O)=O)cc2Cl)n1-c1ccc(F)cc1 ?
Resp: 100 to 1000 nM

Req: Which measured EC50 value corresponds to COc1cc(C(C)(C)c2cnc(SCc3c(F)cc(C(=O)NC(CCCNC(=N)N)C(=O)O)cc3Cl)n2-c2ccc(F)cc2)ccc1F (stereo not drawn) ?
Resp: < 100 nM

Req: Which measured EC50 value corresponds to COc1cc(C(C)(C)c2cnc(SCc3c(F)cc(C(=O)NCCS(=O)(=O)O)cc3Cl)n2-c2ccc(F)cc2)ccc1Cl ?
Resp: < 100 nM

Req: Which measured EC50 value corresponds to CC(C)(c1ccc(Cl)c(Cl)c1)c1cnc(SCc2ccc(C(=O)O)cc2Cl)n1-c1ccc(F)cc1 ?
Resp: 100 to 1000 nM

These entries and their values trace back to patent US8785488B2.
